The origin of these recorded values is the NIST ThermoML archive (doi:10.1016/j.jct.2018.02.018).

# reported-conditions: 313.15 K; 100 kPa; Liquid; Vibrating tube method
reported-endpoint: mass density (kg/m3)

compound	mass density, kg/m3
NCc1ccccc1	965
CN(C)CCCO	869
NCCO	1000
CN(C)CCOCCO	938
C[S+](C)[O-] [dimethyl sulfoxide]	1080

* * *

# reported-conditions: 303.15 K; 100 kPa; Liquid; Frequency=3 MHz; Single path-length method
reported-endpoint: speed of sound (m/s)

compound	speed of sound, m/s
NCCO [2-aminoethan-1-ol]	1702.2
CN(C)CCCO [3-dimethylamino-1-propanol]	1358.8
NCc1ccccc1 [benzylamine]	1540.2
C[S+](C)[O-] [dimethyl sulfoxide]	1469.9
CN(C)CCOCCO [2-(2-dimethylaminoethoxy)ethanol]	1369.9

* * *

# test-description: refractive index (Na D-line) (dimensionless)
# reported-conditions: 323.15 K; 100 kPa; Liquid; Standard Abbe refractometry
reported-endpoint: refractive index

compound	reported-endpoint	observed-value
NCc1ccccc1 [benzylamine]	refractive index	1.529
CN(C)CCCO [3-dimethylamino-1-propanol]	refractive index	1.425
CN(C)CCOCCO [2-(2-dimethylaminoethoxy)ethanol]	refractive index	1.431
NCCO [2-aminoethan-1-ol]	refractive index	1.443
C[S+](C)[O-] [dimethyl sulfoxide]	refractive index	1.466

* * *

# reported-conditions: 323.15 K; 100 kPa; Liquid; Vibrating tube method
reported-endpoint: mass density (kg/m3)

compound	mass density (kg/m3)
NCCO	992
CN(C)CCOCCO	930
C[S+](C)[O-] [dimethyl sulfoxide]	1070
CN(C)CCCO	860
NCc1ccccc1	957

* * *

# test-description: refractive index (Na D-line) (dimensionless)
# reported-conditions: 298.15 K; 100 kPa; Liquid; Standard Abbe refractometry
reported-endpoint: refractive index

compound	reported-endpoint	observed-value
NCCO	refractive index	1.453
NCc1ccccc1	refractive index	1.542
CN(C)CCOCCO	refractive index	1.44
CN(C)CCCO	refractive index	1.435
C[S+](C)[O-] [dimethyl sulfoxide]	refractive index	1.477

* * *

# test-description: refractive index (Na D-line) (dimensionless)
# reported-conditions: 293.15 K; 100 kPa; Liquid; Standard Abbe refractometry
reported-endpoint: refractive index

compound	refractive index
NCc1ccccc1	1.544
CN(C)CCCO	1.437
NCCO	1.455
C[S+](C)[O-] [dimethyl sulfoxide]	1.479
CN(C)CCOCCO	1.442
